B1: TPTE2 peptide 94-109 (Phosphatidylinositol 3,4,5-trisphosphate 3-phosphatase TPTE2), 16-mer library wild type / TLN1 PTB (TLN1 Phosphotyrosine-binding (PTB) domain, residues 309-401) (parent)
chain 1: DLIFTDSKLYIPLEYR
chain 2: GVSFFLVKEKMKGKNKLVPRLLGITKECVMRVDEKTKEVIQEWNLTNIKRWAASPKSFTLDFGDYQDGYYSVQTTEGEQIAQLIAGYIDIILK

# Variants of: B1
# protocol.description: proteomic peptide phage display deep mutational scan (ProP-PD DMS): M13 P8 16-mer library selected against immobilised GST-tagged bait for four days (rounds), NGS of the eluted pools per day and pseudo-replica
# recorded.conditions: with TLN1 PTB (TLN1 Phosphotyrosine-binding (PTB) domain, residues 309-401); bait immobilised on MaxiSorp plates (10 µg), library pre-cleared on GST, 2 h binding at 4 °C, five washes; one round per day, days 1-4; value from days 2 and 3; keep out of graded; scale: average fractional NGS count over selection days 2 and 3
Entries and their measured screen value follow.
metric: screen value

variant_label="chain 1 E14T" metric="screen value" data_value=0.000246
variant_label="chain 1 T5R" metric="screen value" data_value=0
variant_label="chain 1 L9N" metric="screen value" data_value=0
variant_label="chain 1 D6A" metric="screen value" data_value=3.11e-05
variant_label="chain 1 L2P" metric="screen value" data_value=0.000184
variant_label="chain 1 L13A" metric="screen value" data_value=0.0028
variant_label="chain 1 D6T" metric="screen value" data_value=0.000144
variant_label="chain 1 I3Q" metric="screen value" data_value=0.00339
variant_label="chain 1 D1A" metric="screen value" data_value=9.19e-05
variant_label="chain 1 Y15K" metric="screen value" data_value=0.000539
variant_label="chain 1 T5E" metric="screen value" data_value=0.000584
variant_label="chain 1 S7T" metric="screen value" data_value=6.44e-05
variant_label="chain 1 L2W" metric="screen value" data_value=4.75e-05
variant_label="chain 1 L2V" metric="screen value" data_value=0.00592
variant_label="chain 1 L9M" metric="screen value" data_value=4.46e-05
variant_label="chain 1 E14P" metric="screen value" data_value=0.00048
variant_label="chain 1 K8A" metric="screen value" data_value=0.0039
variant_label="chain 1 L2D" metric="screen value" data_value=9.22e-05
variant_label="chain 1 S7N" metric="screen value" data_value=0.000778
variant_label="chain 1 L13V" metric="screen value" data_value=4.1e-05
variant_label="chain 1 I11E" metric="screen value" data_value=0.000129
variant_label="chain 1 T5Y" metric="screen value" data_value=8.75e-05
variant_label="chain 1 D1Q" metric="screen value" data_value=3.51e-05
variant_label="chain 1 L2M" metric="screen value" data_value=0.00204
variant_label="chain 1 L13Y" metric="screen value" data_value=0
variant_label="chain 1 I11Q" metric="screen value" data_value=7.15e-05
variant_label="chain 1 K8I" metric="screen value" data_value=0
variant_label="chain 1 D6H" metric="screen value" data_value=3.45e-05
variant_label="chain 1 P12A" metric="screen value" data_value=0
variant_label="chain 1 I11N" metric="screen value" data_value=7.83e-05
variant_label="chain 1 L2I" metric="screen value" data_value=0.000173
variant_label="chain 1 D1H" metric="screen value" data_value=0
variant_label="chain 1 K8D" metric="screen value" data_value=0.00103
variant_label="chain 1 Y15V" metric="screen value" data_value=0.000703
variant_label="chain 1 I11Y" metric="screen value" data_value=5.14e-05
variant_label="chain 1 T5Q" metric="screen value" data_value=0.00106
variant_label="chain 1 I3K" metric="screen value" data_value=0.00351
variant_label="chain 1 D6M" metric="screen value" data_value=0
variant_label="chain 1 T5K" metric="screen value" data_value=0
variant_label="chain 1 D1T" metric="screen value" data_value=0.000148
variant_label="chain 1 K8M" metric="screen value" data_value=0.000286
variant_label="chain 1 S7D" metric="screen value" data_value=0
variant_label="chain 1 I3E" metric="screen value" data_value=0.00388
variant_label="chain 1 L9G" metric="screen value" data_value=0.000626
variant_label="chain 1 L13H" metric="screen value" data_value=2.74e-05
variant_label="chain 1 L9A" metric="screen value" data_value=0.00044
variant_label="chain 1 I11M" metric="screen value" data_value=3.76e-05
variant_label="chain 1 T5L" metric="screen value" data_value=0
variant_label="chain 1 L2Q" metric="screen value" data_value=0
variant_label="chain 1 I3G" metric="screen value" data_value=0.000109
variant_label="chain 1 I3R" metric="screen value" data_value=0.00161
variant_label="chain 1 Y15D" metric="screen value" data_value=0.00294
variant_label="chain 1 I3H" metric="screen value" data_value=4.16e-05
variant_label="chain 1 L13D" metric="screen value" data_value=3.05e-05
variant_label="chain 1 T5V" metric="screen value" data_value=0.00155
variant_label="chain 1 I3L" metric="screen value" data_value=0.00133
variant_label="chain 1 Y15T" metric="screen value" data_value=0.0011
variant_label="chain 1 D6Y" metric="screen value" data_value=3.05e-05
variant_label="chain 1 E14F" metric="screen value" data_value=9.64e-05
variant_label="chain 1 L9V" metric="screen value" data_value=0.000711
variant_label="chain 1 D1G" metric="screen value" data_value=0.00013
variant_label="chain 1 K8N" metric="screen value" data_value=0.000705
variant_label="chain 1 I3D" metric="screen value" data_value=0.0027
variant_label="chain 1 L2N" metric="screen value" data_value=2.74e-05
variant_label="chain 1 E14S" metric="screen value" data_value=6.5e-05
variant_label="chain 1 I11L" metric="screen value" data_value=0.00308
variant_label="chain 1 L13R" metric="screen value" data_value=0.000367
variant_label="chain 1 K8L" metric="screen value" data_value=0.000141
variant_label="chain 1 Y15R" metric="screen value" data_value=4.1e-05
variant_label="chain 1 E14G" metric="screen value" data_value=0.00107
variant_label="chain 1 I3T" metric="screen value" data_value=0.00253
variant_label="chain 1 L13Q" metric="screen value" data_value=0.000253
variant_label="chain 1 L9T" metric="screen value" data_value=2.4e-05
variant_label="chain 1 L9R" metric="screen value" data_value=0
variant_label="chain 1 D6G" metric="screen value" data_value=0
variant_label="chain 1 D6E" metric="screen value" data_value=0.000625
variant_label="chain 1 L9I" metric="screen value" data_value=0.000157
